system.name: recombinant human ghrelin receptor (HEK293/GRLN) (Homo sapiens)
Construct: expressed in transfected cells
Sequence (Q92847 whole entry): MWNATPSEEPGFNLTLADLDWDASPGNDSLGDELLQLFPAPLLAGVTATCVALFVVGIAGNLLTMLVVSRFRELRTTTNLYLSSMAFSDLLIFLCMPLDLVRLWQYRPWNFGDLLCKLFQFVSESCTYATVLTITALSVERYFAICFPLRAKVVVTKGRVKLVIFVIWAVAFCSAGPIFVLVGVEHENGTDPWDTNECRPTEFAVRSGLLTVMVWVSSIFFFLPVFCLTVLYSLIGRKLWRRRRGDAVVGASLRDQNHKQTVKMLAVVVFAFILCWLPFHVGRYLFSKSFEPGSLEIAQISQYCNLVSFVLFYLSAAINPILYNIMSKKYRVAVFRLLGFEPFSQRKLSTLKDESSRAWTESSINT
experimental.details: Ghrelin inverse agonist potency (EC50) with IP-1 (IP-One HTRF) assay
Assay type: cell-based
condition.details: inverse agonist potency, IP-1 assay; read-out: EC50 (Activity)
Counter-ions that a name gives are not always drawn.
EC50 for assorted molecules
parameter.measured: EC50 (nM)

- molecule: "CCNC(=O)Nc1ccc(S(=O)(=O)Nc2ccc(CC(C)(C)N)cc2)cc1"
  value.unit: "nM"
  observed: 1430
- molecule: "CCC(NC(=O)Nc1ccc(S(=O)(=O)Cc2ccc3c(c2)CN(C)C3)cc1)c1ccccc1 (centres unmarked)"
  value.unit: "nM"
  observed: 6.1
- molecule: "CC(C)(N)Cc1ccc(NS(=O)(=O)c2ccc(NC(=O)NCc3cccc(Cl)c3Cl)cc2)cc1"
  value.unit: "nM"
  observed: 5.7
- molecule: "CC(NC(=O)Nc1ccc(S(=O)(=O)Nc2ccc3c(c2)CNC3)cc1)c1cccc2ccccc12 (centres unmarked)"
  value.unit: "nM"
  observed: 5.03
- molecule: "CCNC(=O)Nc1ccc(S(=O)(=O)Cc2ccc3c(c2)CNC3)cc1"
  value.unit: "nM"
  observed: 315
- molecule: "CC(NC(=O)Nc1ccc(S(=O)(=O)Cc2ccc3c(c2)CCNC3)cc1)c1cccc(Cl)c1 (centres unmarked)"
  value.unit: "nM"
  observed: 122
- molecule: "CC(C)CNC(=O)Nc1ccc(S(=O)(=O)Cc2ccc3c(c2)CN(C)C3)cc1"
  value.unit: "nM"
  observed: 507
- molecule: "O=C(NCc1ccccc1)Nc1ccc(S(=O)(=O)Cc2ccc3c(c2)CCNC3)cc1"
  value.unit: "nM"
  observed: 188
- molecule: "COc1ccc(CNC(=O)Nc2ccc(S(=O)(=O)Cc3ccc4c(c3)CNC4)cc2)nc1"
  value.unit: "nM"
  observed: 1780
- molecule: "CCOC(=O)N1CCc2cc(CS(=O)(=O)c3ccc(NC(=O)N[C@@H](C)c4cccc(Cl)c4Cl)cc3)ccc2C1"
  value.unit: "nM"
  observed: 516
- molecule: "C[C@H](NC(=O)Nc1ccc(S(=O)(=O)Cc2cccc(CO)c2)cc1)c1cccc(Cl)c1Cl"
  value.unit: "nM"
  observed: 367
- molecule: "CC(NC(=O)N(O)c1ccc(S(=O)(=O)Nc2ccc3c(c2)CNC3)cc1)c1cccc2ccccc12 (centres unmarked)"
  value.unit: "nM"
  observed: 7.1
- molecule: "C[C@H](NC(=O)Nc1ccc(S(=O)(=O)Cc2ccc3c(c2)CCNC3)cc1)c1cccc(Cl)c1Cl"
  value.unit: "nM"
  observed: 1.62
- molecule: "CC(c1ccc2c(c1)CCNC2)S(=O)(=O)c1ccc(NC(=O)N[C@@H](C)c2cccc(Cl)c2Cl)cc1 (some centres unmarked) [H1103, hydrochloride]"
  value.unit: "nM"
  observed: 66
- molecule: "C[C@H](NC(=O)Nc1ccc(S(=O)(=O)Nc2ccc(C(C)(C)N)cc2)cc1)c1cccc(Cl)c1Cl"
  value.unit: "nM"
  observed: 657
- molecule: "CN1Cc2ccc(CS(=O)(=O)c3ccc(NC(=O)NCC(C)(C)C)cc3)cc2C1"
  value.unit: "nM"
  observed: 1260
- molecule: "CC(NC(=O)Nc1ccc(S(=O)(=O)Cc2ccc3c(c2)CN(CC2CC2)C3)cc1)c1ccccc1 (centres unmarked)"
  value.unit: "nM"
  observed: 30.4
